system: SW48 (PIK3CA mut); test: Tumor cell proliferation, CCK8 method, SW48; format: cell-based; conditions: Homo sapiens, SW48, read-out: SW48 (PIK3CA mut) proliferation IC50
pIC50: −log10 of the molar value.
ATTRIBUTE MEASURED: pIC50

Ask: Which value of pIC50 has been reported for COc1c(OCCCN2CCOCC2)ccc2c1N=C(NC(=O)c1cnc(N)nc1)N1CCN=C21 [Copanlisib, reference compound] in the records?
Reply: > 7.70

---

Listed compounds paired with reported pIC50
target: PI3Kδ (Homo sapiens, UniProt O00329); assay: PI3Kδ molecular activity test (ADP-GLO); details: recombinant protein
Sequence (O00329 whole entry): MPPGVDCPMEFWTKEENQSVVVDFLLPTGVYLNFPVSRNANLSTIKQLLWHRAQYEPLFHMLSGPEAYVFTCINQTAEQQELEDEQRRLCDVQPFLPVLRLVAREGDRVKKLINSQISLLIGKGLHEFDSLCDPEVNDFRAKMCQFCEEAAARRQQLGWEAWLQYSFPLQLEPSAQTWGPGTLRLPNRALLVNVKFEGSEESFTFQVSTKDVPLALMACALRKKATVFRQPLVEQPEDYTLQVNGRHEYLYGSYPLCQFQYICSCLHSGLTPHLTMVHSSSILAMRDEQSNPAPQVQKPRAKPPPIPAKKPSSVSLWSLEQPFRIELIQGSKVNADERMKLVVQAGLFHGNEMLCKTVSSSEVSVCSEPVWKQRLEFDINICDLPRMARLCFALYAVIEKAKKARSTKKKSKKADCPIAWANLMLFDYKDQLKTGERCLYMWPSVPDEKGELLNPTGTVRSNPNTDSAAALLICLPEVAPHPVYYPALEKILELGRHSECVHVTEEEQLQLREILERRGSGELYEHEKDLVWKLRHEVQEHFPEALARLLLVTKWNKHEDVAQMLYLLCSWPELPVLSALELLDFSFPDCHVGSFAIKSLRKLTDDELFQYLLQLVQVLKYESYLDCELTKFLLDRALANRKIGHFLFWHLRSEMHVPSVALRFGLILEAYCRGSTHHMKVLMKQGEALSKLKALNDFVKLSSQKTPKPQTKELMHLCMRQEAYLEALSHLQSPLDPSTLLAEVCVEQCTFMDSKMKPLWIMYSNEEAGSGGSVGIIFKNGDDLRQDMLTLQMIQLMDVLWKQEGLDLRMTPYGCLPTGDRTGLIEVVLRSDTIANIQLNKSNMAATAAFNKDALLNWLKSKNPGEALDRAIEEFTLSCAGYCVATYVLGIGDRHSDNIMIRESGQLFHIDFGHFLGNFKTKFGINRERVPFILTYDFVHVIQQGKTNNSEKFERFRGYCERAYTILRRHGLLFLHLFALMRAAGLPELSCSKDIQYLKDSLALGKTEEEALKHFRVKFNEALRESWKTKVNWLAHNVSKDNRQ
Sequence (P27986 whole entry partner): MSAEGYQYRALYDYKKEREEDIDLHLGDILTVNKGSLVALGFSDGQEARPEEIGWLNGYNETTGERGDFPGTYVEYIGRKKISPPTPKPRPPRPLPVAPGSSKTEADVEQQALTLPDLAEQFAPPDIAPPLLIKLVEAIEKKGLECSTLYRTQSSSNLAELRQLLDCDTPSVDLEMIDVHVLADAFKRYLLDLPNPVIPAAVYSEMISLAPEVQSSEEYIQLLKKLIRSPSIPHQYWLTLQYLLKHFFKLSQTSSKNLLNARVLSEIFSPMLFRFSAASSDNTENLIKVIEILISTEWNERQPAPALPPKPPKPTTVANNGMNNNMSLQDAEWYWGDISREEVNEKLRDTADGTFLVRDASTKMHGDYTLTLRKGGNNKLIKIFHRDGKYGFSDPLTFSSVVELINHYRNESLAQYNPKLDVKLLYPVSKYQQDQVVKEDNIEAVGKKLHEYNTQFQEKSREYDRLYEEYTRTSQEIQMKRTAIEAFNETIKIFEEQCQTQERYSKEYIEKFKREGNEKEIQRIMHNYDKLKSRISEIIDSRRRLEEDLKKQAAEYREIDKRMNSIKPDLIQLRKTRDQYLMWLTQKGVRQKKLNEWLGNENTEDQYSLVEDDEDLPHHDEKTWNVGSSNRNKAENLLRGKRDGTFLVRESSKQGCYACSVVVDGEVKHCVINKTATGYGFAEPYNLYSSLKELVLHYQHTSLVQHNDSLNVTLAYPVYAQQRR
pIC50: −log10 of the molar value.

Please review the following examples before continuing.
COMPOUND SMILES	TESTED TARGET	pIC50
CCn1c(NC(=O)c2ccc(N)nc2)nc2c(OC)c(OC[C@H](O)CN3CCOCC3)ccc2c1=O	PI3Kδ (Homo sapiens, UniProt O00329)	6.00 to 6.70
CCn1c(NC(=O)c2cnc(N)nc2)nc2c(OC)c(OCCCC(N)=O)ccc2c1=O	PI3Kδ (Homo sapiens, UniProt O00329)	6.70 to 7.70
COc1c(O)ccc2c(=O)n(CC(F)(F)F)c(NC(=O)c3cnc(N)nc3)nc12	PI3Kδ (Homo sapiens, UniProt O00329)	6.70 to 7.70

Ask: Which value of pIC50 has been reported for `COc1c(OC[C@H](O)CN2CCOCC2)ccc2c(=O)n(C)c(NC(=O)c3cnc(N)nc3)nc12` in the records?
Reply: 6.70 to 7.70
